Source of measurements: paper PMC8162404

Measured pKd accompanies every entry in the list below.
Molecular target: CaM (Bos taurus)
Construct: made in house; host or cells: E. coli BL21 (DE3)
Assay: Pull-down assay with immobilized protein and LSM libraries
Format: binding, bovine
Details: H14 library; 1:2 stoichiometry assumed; read-out: Surface mapping KD (apparent)
pKd: −log10 of the molar value.
measurementKind: pKd

structureSmilesString	measurementKind	testValue
CC[C@H](C)[C@@H](CC(=O)N[C@H]1CCCC[C@@H]1C(=O)N[C@H]1CCCC[C@@H]1C(=O)N[C@H](CC(=O)N[C@H]1CCCC[C@@H]1C(N)=O)C(C)C)NC(=O)[C@H]1CCCC[C@@H]1N	pKd	5.52
CC[C@H](C)[C@@H](CC(=O)N[C@H]1CCCC[C@@H]1C(=O)N[C@H]1CCCC[C@@H]1C(=O)N[C@H](CC(=O)N[C@H]1CCCC[C@@H]1C(N)=O)Cc1ccc(O)cc1)NC(=O)[C@H]1CCCC[C@@H]1N	pKd	4.82
NC(=O)[C@H]1CCCC[C@@H]1NC(=O)C[C@H](CCC(=O)O)NC(=O)[C@H]1CCCC[C@@H]1NC(=O)[C@H]1CCCC[C@@H]1NC(=O)C[C@H](CO)NC(=O)[C@H]1CCCC[C@@H]1N	pKd	3.63

---

Target: S100A4 (Homo sapiens, UniProt P26447)
Construct: made in house; host or cells: Escherichia coli BL21(DE3)
Sequence (P26447 whole entry): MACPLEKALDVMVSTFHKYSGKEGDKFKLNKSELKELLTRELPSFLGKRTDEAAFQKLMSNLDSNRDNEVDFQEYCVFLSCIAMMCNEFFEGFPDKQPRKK
Experiment: Pull-down assay with immobilized protein and LSM libraries
Format: binding
Conditions: H14 library; 1:1 binding assumed; read-out: Surface mapping KD (apparent)

structureSmilesString	unitSpec	Kd
CC(C)[C@@H](CC(=O)N[C@H]1CCCC[C@@H]1C(N)=O)NC(=O)[C@H]1CCCC[C@@H]1NC(=O)[C@H]1CCCC[C@@H]1NC(=O)C[C@H](CCCCN)NC(=O)[C@H]1CCCC[C@@H]1N	µM	71
NCCCC[C@@H](CC(=O)N[C@H]1CCCC[C@@H]1C(=O)N[C@H]1CCCC[C@@H]1C(=O)N[C@H](CC(=O)N[C@H]1CCCC[C@@H]1C(N)=O)Cc1c[nH]c2ccccc12)NC(=O)[C@H]1CCCC[C@@H]1N	µM	184
CC(C)C[C@@H](CC(=O)N[C@H]1CCCC[C@@H]1C(N)=O)NC(=O)[C@H]1CCCC[C@@H]1NC(=O)[C@H]1CCCC[C@@H]1NC(=O)C[C@H](CO)NC(=O)[C@H]1CCCC[C@@H]1N	µM	19
CC(C)[C@@H](CC(=O)N[C@H]1CCCC[C@@H]1C(=O)N[C@H]1CCCC[C@@H]1C(=O)N[C@H](CC(=O)N[C@H]1CCCC[C@@H]1C(N)=O)Cc1ccccc1)NC(=O)[C@H]1CCCC[C@@H]1N	µM	3
CC[C@H](C)[C@@H](CC(=O)N[C@H]1CCCC[C@@H]1C(N)=O)NC(=O)[C@H]1CCCC[C@@H]1NC(=O)[C@H]1CCCC[C@@H]1NC(=O)C[C@H](Cc1ccccc1)NC(=O)[C@H]1CCCC[C@@H]1N	µM	9

---

Below, each entry is listed with its recorded pKd.
Molecular target: Gal-1 (Homo sapiens)
Construct: made in house; host or cells: E. coli BL21(DE3)
Sequence (P09382 whole entry): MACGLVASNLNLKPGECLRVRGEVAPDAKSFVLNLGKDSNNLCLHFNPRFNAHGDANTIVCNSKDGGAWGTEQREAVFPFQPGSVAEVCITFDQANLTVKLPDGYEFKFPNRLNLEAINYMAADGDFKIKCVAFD
Assay: Pull-down assay with immobilized protein and LSM libraries
Type: binding
Conditions: H12 library; 1:1 binding assumed; read-out: Surface mapping KD (apparent)
pKd: −log10 of the molar value.

structureSmilesString	pKd
CC(C)[C@@H](CC(=O)N[C@H]1CCC[C@@H]1C(=O)N[C@H]1CCC[C@@H]1C(=O)N[C@@H](CCC(N)=O)CC(=O)N[C@H]1CCC[C@@H]1C(=O)N[C@H]1CCC[C@@H]1C(N)=O)NC(=O)[C@H]1CCC[C@@H]1NC(=O)[C@H]1CCC[C@@H]1N	3.36
CC(C)C[C@@H](CC(=O)N[C@H]1CCC[C@@H]1C(=O)N[C@H]1CCC[C@@H]1C(N)=O)NC(=O)[C@H]1CCC[C@@H]1NC(=O)[C@H]1CCC[C@@H]1NC(=O)C[C@H](CCCNC(=N)N)NC(=O)[C@H]1CCC[C@@H]1NC(=O)[C@H]1CCC[C@@H]1N	3.71
